# assay name: folding enthalpy; higher = less favourable; fluorescence melt of hairpins on a sequencing array, two-state fit
# experimental setup: sodium 0.088 M
Is folding enthalpy at least -40 kcal/mol? Then 1. If not, -1.

GATCTCCTCCGAGATC ((((((....)))))) = -1
GGCTTTGGAAACGAAGCC (((((.(....).))))) = -1

Can GATCGGGCAACCGATC ((((((....)))))) be said to have folding enthalpy at or above -40 kcal/mol?
1

Can GGGCTGGGAAACTGGCCC ((((..(....)..)))) be said to have folding enthalpy at or above -40 kcal/mol?
-1

* * *

# assay name: melting temperature; fluorescence melt of hairpins on a sequencing array, two-state fit, raised by 9.35 °C to match UV melts
# experimental setup: sodium 0.088 M
quantity kind: Tm (°C)
# output: bare number, implied unit °C

See these solved cases before continuing.
GTGCTCGAAAGAGATCAC ((((((....)))..))) = 30.9
GATCCGTGCTCGGATC ((((((....)))))) = 59.7
GCTCCGCGAAAGCGAGC (((.(((....)))))) = 61.7
CGGGTCGGAAACGACCG (((.(((....)))))) = 61.7
GATCGACGTATCGATC ((((((....)))))) = 51.2

Return Tm for the following sequence: GCAATGCGAAAGCTTTGC ((((.((....)).))))
63

Return Tm for the following sequence: GATCATAAGGATGATC ((((((....))))))
45.3

Return Tm for the following sequence: GTGAAGCGAAAGCTGCAC (((.(((....))).)))
61

Return Tm for the following sequence: GATCATATTATGATC ((((((...))))))
48.6

Return Tm for the following sequence: GCTTAGCGAAAGCTATGC ((.((((....)))).))
59.5

Return Tm for the following sequence: GAACTTGAAAAAGTTC ((((((....))))))
49.7

Return Tm for the following sequence: GCTTCGGGAAACCGAAAC (.(((((....))))).)
40.2

* * *

# assay name: melting temperature; fluorescence melt of hairpins on a sequencing array, two-state fit, raised by 9.35 °C to match UV melts
# experimental setup: sodium 0.088 M
# key: entry, value: Tm
# output: bare number, implied unit °C

See these solved cases before continuing.
GATCAAGATATTGATC ((((((....)))))) = 48.5
GCATGTGGAAACACGTGC (((.(((....))).))) = 55.6
CGCCTCCGGAAACGGGCG (((..(((....)))))) = 48.1
GAGGTGGCGAAAGCCCTC (((..(((....)))))) = 43.7
GTGCTGGGAAACTAGCAC (((((.(....).))))) = 54.3

Return Tm for the following sequence: GCCTTGCGAAAGCAATGC ((.((((....)))).))
56.9

Return Tm for the following sequence: GATCTGCTCGCAGATC ((((((....))))))
62.6

Return Tm for the following sequence: GCTCGGCGAAAGCGGCGC ((.(.((....)).).))
54

* * *

# key: entry, value: Tm
# assay name: melting temperature; fluorescence melt of hairpins on a sequencing array, two-state fit, raised by 9.35 °C to match UV melts
# experimental setup: sodium 0.088 M
# output: bare number, implied unit °C

See these solved cases before continuing.
GACCACGAAAGTGTGGTC ((((((....)))..))) = 55.2
GATCAGATCCCTGATC ((((((....)))))) = 48.3
GTACGGACGAAAGTCTAC (((..(((....)))))) = 31
GATGAGCCGAAAGGCATC (((..(((....)))))) = 33.5
GCGTTCGGAAACGAGTGC ((..(((....)))..)) = 41.8
GCCCGCGAAAGCGACGGC ((((((....)))..))) = 54.9
GGCGATCCGAAAGGAGCC (((..(((....)))))) = 53.9
GAGCACGAAAGTGTCCTC ((((((....)))..))) = 35.2
GCTGGTGGAAACACTAGC (((.(((....))).))) = 51.3
GCGGGGTTCCGC ((((....)))) = 61.1

Return Tm for the following sequence: GGTGCACGAAAGTGAACC (((.(((....))).)))
61.4

Return Tm for the following sequence: GCTGGGCGAAAGCTCTGC ((.(.((....)).).))
53.1

* * *

# assay name: folding enthalpy; higher = less favourable; fluorescence melt of hairpins on a sequencing array, two-state fit
# experimental setup: sodium 0.088 M
# key: entry, value: folding enthalpy
# output: bare number, implied unit kcal/mol

See these solved cases before continuing.
GTGATGGGAAACTATCAC (((((.(....).))))) = -32.2
GATCACATTTGTGATC ((((((....)))))) = -40.8
CGCGACGGAAACGTTGCG (((.(((....))).))) = -54.2
AGTCGGAAACGACT (((((....))))) = -20.1

Return folding enthalpy for the following sequence: GTAGTTCGAAAGAAATAC (((.(((....))).)))
-29.2

* * *

# assay name: melting temperature; fluorescence melt of hairpins on a sequencing array, two-state fit, raised by 9.35 °C to match UV melts
# experimental setup: sodium 0.088 M
# key: entry, value: Tm
# output: bare number, implied unit °C

Return Tm for the following sequence: GCGCCCGAAAGGGGACGC ((((((....)))..)))
62.2

Return Tm for the following sequence: GAACGCGAAAGCGGGTTC ((((((....)))..)))
47.1

Return Tm for the following sequence: GCTGGGGGAAACCCCAAC (.(((((....))))).)
38.5

Return Tm for the following sequence: GACCGGGCGAAAGCCGTC (((..(((....))))))
40.4

Return Tm for the following sequence: GTACACCGAAAGGTTAC (((.(((....))))))
39.9

Return Tm for the following sequence: GCTAGCGAAAGCTCCAGC ((((((....)))..)))
33.1

Return Tm for the following sequence: GATCAACTGATTGATC ((((((....))))))
42.7

Return Tm for the following sequence: GATGTGCCGAAAGGCATC (((..(((....))))))
36.1

Return Tm for the following sequence: GGGGTACGAAAGTAACCC (((.(((....))).)))
60.9

Return Tm for the following sequence: GTTGTCGGAAACGATGAC ((..(((....)))..))
40.4

Return Tm for the following sequence: GTAAACGGAAACGTCTAC (((.(((....))).)))
29

Return Tm for the following sequence: GTCGTGACGAAAGTCGAC (((..(((....))))))
46.3

Return Tm for the following sequence: GTGCCCGAAAGGGTCCAC ((((((....)))..)))
41

* * *

# assay name: melting temperature; fluorescence melt of hairpins on a sequencing array, two-state fit, raised by 9.35 °C to match UV melts
# experimental setup: sodium 0.088 M
Label key: satisfied means Tm under 50 °C; not satisfied means Tm of 50 °C or more.

Example entries begin here.
GGCCAGCGAAAGCTCGCC (((.(((....))).))) = not satisfied
GGTACAACGAAAGTTACC (((..(((....)))))) = satisfied
GACTGCGAAAGCACCGTC ((((((....)))..))) = satisfied
GGAGAGAAATCTCC (((((....))))) = satisfied
GGGCATACGAAAGTACCC (((..(((....)))))) = satisfied

Please indicate whether the reported Tm of GCACGAGGAAACCCGTGC (((((.(....).))))) is strictly below 50 °C.
not satisfied

Please indicate whether the reported Tm of GACCGAGGAAACTCGATC ((.((((....)))).)) is strictly below 50 °C.
satisfied

Please indicate whether the reported Tm of GTAGCCGAAAGGCCGTAC ((((((....)))..))) is strictly below 50 °C.
satisfied

Please indicate whether the reported Tm of GAGTTCGAAAGAACTC ((((((....)))))) is strictly below 50 °C.
not satisfied

* * *

# assay name: folding enthalpy; higher = less favourable; fluorescence melt of hairpins on a sequencing array, two-state fit
# experimental setup: sodium 0.088 M
Is folding enthalpy at least -20 kcal/mol? Then 1 (yes). If not, 0 (no).

CGCGCCGGAAACGGGCG (((.(((....)))))) = 0 (no)
GCCGACGGAAACATCGGC (((((.(....).))))) = 0 (no)
GCCTAACGAAAGTTGGC (((.(((....)))))) = 0 (no)

Can GGTTAGACGAAAGTCACC (((..(((....)))))) be said to have folding enthalpy at or above -20 kcal/mol?
1 (yes)

Can GCACACTCGAAAGAGTGC (((..(((....)))))) be said to have folding enthalpy at or above -20 kcal/mol?
1 (yes)
